target: Integrin alpha-V/beta-6 (Homo sapiens, UniProt P06756+P18564); assay: Inhibition of alpha-V-beta-6 integrin receptor in human HT29 cells; format: cell-based, HT-29
Sequence (P06756 31-889 limits assumed): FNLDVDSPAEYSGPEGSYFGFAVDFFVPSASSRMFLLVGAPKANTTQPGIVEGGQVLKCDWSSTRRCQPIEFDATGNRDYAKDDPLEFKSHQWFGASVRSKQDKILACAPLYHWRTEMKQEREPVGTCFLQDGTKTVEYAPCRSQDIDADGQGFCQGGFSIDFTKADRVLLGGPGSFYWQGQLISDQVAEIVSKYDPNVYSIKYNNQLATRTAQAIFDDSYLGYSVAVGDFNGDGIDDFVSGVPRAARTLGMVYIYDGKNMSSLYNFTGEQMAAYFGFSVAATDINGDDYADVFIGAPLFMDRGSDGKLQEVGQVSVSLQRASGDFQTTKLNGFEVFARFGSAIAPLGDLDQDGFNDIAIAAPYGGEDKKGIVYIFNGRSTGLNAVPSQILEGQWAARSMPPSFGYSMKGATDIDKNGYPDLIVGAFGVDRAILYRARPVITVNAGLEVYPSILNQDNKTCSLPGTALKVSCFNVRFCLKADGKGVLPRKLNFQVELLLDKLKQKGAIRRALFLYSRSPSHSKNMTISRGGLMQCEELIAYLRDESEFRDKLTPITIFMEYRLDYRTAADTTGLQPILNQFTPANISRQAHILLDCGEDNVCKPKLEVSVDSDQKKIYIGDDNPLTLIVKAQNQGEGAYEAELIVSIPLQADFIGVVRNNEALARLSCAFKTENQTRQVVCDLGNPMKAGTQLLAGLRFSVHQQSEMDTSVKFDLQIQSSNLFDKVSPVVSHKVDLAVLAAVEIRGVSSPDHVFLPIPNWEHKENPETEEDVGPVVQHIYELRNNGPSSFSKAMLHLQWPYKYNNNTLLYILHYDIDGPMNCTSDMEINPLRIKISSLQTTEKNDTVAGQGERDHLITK
Sequence (P06756 891-1048 limits assumed): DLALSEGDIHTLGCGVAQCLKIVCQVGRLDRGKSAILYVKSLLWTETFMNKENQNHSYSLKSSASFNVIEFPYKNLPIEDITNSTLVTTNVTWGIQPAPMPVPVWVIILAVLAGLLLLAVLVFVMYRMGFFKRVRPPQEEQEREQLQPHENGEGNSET
Sequence (P18564 22-788 limits assumed): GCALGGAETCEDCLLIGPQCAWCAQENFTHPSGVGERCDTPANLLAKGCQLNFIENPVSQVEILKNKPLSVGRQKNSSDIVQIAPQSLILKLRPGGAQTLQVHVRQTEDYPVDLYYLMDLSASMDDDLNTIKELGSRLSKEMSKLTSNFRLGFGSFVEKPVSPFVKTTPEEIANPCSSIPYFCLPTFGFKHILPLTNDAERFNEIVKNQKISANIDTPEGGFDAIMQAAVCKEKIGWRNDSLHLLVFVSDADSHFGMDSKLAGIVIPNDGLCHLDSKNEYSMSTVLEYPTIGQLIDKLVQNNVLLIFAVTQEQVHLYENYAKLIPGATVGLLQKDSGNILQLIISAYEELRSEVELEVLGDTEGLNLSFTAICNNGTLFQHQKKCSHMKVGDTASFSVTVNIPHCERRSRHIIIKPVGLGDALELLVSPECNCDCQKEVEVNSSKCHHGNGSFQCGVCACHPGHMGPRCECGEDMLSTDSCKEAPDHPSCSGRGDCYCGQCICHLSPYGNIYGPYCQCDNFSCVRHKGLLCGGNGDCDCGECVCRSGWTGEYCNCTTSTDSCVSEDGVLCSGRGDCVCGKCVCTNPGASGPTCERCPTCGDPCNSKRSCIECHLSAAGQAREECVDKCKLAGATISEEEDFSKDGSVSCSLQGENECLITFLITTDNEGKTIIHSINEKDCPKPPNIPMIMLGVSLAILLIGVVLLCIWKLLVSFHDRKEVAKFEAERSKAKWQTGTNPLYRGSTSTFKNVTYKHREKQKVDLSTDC
Could you mark each record fulfilled if its IC50 falls strictly under 100 nM, and not fulfilled if it equals or exceeds it?

Reference set (5 entries):
O=C(O)C[C@@H](NC(=O)CNC(=O)c1cc(O)cc(NC2=NCC(F)CN2)c1)c1cc(Br)cc(Br)c1O (stereo partly drawn) :: not fulfilled
O=C(O)C[C@@H](NC(=O)CNC(=O)c1cccc(NC2=NCC(F)CN2)c1)c1cc(Br)cc(Cl)c1O (stereo partly drawn) :: fulfilled
O=C(O)C[C@@H](NC(=O)CNC(=O)c1cc(O)cc(NC2=NCCCN2)c1)c1cc(Cl)cc(Br)c1O :: not fulfilled
Nc1cc(NC2=NCC(O)CN2)cc(C(=O)NCC(=O)N[C@H](CC(=O)O)c2cc(Br)cc(Cl)c2O)c1 (stereo partly drawn) :: not fulfilled
O=C(O)C[C@@H](NC(=O)CNC(=O)c1cc(O)cc(NC2=NCC(F)CN2)c1)c1cc(Cl)cc(Cl)c1 (stereo partly drawn) :: fulfilled

Hello, is IC50 of the following molecule strictly smaller than 100 nM? `O=C(O)C[C@@H](NC(=O)CNC(=O)c1cc(O)cc(NC2=NCCCN2)c1)c1cc(Br)cc(Cl)c1O`
not fulfilled

Hello, is IC50 of the following molecule strictly smaller than 100 nM? Cc1cc(C)c(O)c([C@@H](CC(=O)O)NC(=O)CNC(=O)c2cc(O)cc(NC3=NCC(O)CN3)c2)c1 (stereo partly drawn)
not fulfilled

Hello, is IC50 of the following molecule strictly smaller than 100 nM? `O=C(O)C[C@@H](NC(=O)CNC(=O)c1cc(O)cc(N=C2NCCCN2)c1)c1cc(Br)cc(Br)c1O`
not fulfilled
